- ASSAYED_SYSTEM: acetylcholine receptor
- MEASUREMENT_NOTES: SPR, AchR immobilized on chip, peptide 10 uM
PROPERTY: Binding affinity (RU)

BINDER	RESULT_UNIT	Binding affinity (RU)
RLVTK [5mer-487]	RU	62
RSITR [5mer-154]	RU	54
KQRYR [5mer-180]	RU	74
KWYTK [5mer-463]	RU	52
RVRTR [5mer-150]	RU	64
RGQYK [5mer-457]	RU	59
RLLQK [5mer-189]	RU	65
RGQRR [5mer-159]	RU	73
RVIQK [5mer-450]	RU	78
RRVLK [5mer-178]	RU	87
KGVCR [5mer-453]	RU	68
RWVRK [5mer-177]	RU	77
RSVSR [5mer-173]	RU	59
RWQCK [5mer-468]	RU	54
RWQTK [5mer-158]	RU	65
RWFRK [5mer-465]	RU	57
KSICK [5mer-164]	RU	54
RRYRK [5mer-472]	RU	55
RVVLR [5mer-492]	RU	80
RSYYR [5mer-196]	RU	69
